- Test system: TDF;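 further: TDF denotes transformed human dermal fibroblasts of mesenchymal origin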
- Measurement Protocol: cell number relative to DMSO (% of DMSO); higher = more cells (less growth inhibition / toxicity)
- Applied Conditions: concentration: 10 µM; 24 h
Label class 1 when cell number is at or above 100; otherwise label class 0.

- Compound: "C=CCN1CCC23c4c5ccc(O)c4OC2C(=NN=C2CCC4(O)C6Cc7ccc(O)c8c7C4(CCN6CC=C)C2O8)CCC3(O)C1C5.Cl.Cl (configuration not stated) [Naloxonazine dihydrochloride]"
  Answer Label: "class 0"
- Compound: "CC1=C(C)C(=O)C(CCC(C)(O)CCCC(C)CCCC(C)CCCC(C)C)=C(C)C1=O (racemic)"
  Answer Label: "class 1"
- Compound: "COc1ccc(C(CN(C)C)C2(O)CCCCC2)cc1 (configuration not stated)"
  Answer Label: "class 1"
- Compound: "Cc1nc(-c2ccc(-c3ccc(C(=O)N4CCc5cc6c(cc54)C4(CCN(C)CC4)CO6)cc3)c(C)c2)no1.Cl"
  Answer Label: "class 0"
- Compound: "C[N+]1(C)C2CCC1CC(OC(=O)C(CO)c1ccccc1)C2.O=[N+]([O-])[O-] (configuration not stated) [Atropine methyl nitrate]"
  Answer Label: "class 1"
- Compound: "Cl.Oc1ccc2c3c1OC1C(O)CCC4(O)C(C2)N(CC2CCC2)CCC314 (configuration not stated) [Nalbuphine hydrochloride]"
  Answer Label: "class 1"
